Assay: Primary qHTS for inhibitors of nuclear receptor binding SET domain protein 2 (NSD2) in an isogenic RCH-ACV NSD2 p.E1099K mutant (9B) (AID 1645876); also: nearly all actives have a fitted effect of over 70% in size
Conditions: RCH-ACV (leukaemia line) NSD2 E1099K (9B) viability, CellTiter-Glo, 72 h; series mostly up to 44.9 µM
Records with an inconclusive call do not appear. The source made the active and inactive calls. Calls follow the shape of the dose curve; as a rule, active = well fitted inhibition curve with a large enough effect; inconclusive = small, poorly fitted or top-dose-only effect; inactive = flat fitted curve, though single readings scatter.
Tick one outcome: True for active, False for inactive

Req: Record request — test call for CCO[C@H]1CN(C2CCC(O)(c3ccc4c(c3)OCO4)CC2)C[C@@H]1NC(=O)CNC(=O)c1cccc(C(F)(F)F)c1 (stereo partly drawn)
Resp: False

Req: Which outcome was assigned to `CN1CCN(S(=O)(=O)c2ccc(-c3cnc(N)c(C(=O)Nc4cccnc4)n3)cc2)CC1` in this test?
Resp: True

Req: In this assay, the call recorded for COc1cc2nc(N3CCN(C(=O)c4ccco4)C4CCCCC43)nc(N)c2cc1OC (stereo not drawn) was what?
Resp: True

* * *

Tested on: PA-1
Assay: Primary qHTS to identify gynecologic anti-cancer compounds using libraries of approved drugs and bioactive compounds (AID 1345084); also: nearly all actives have a fitted effect of over 55% in size
Settings: Gynecologic cancer cell panel viability, ATPlite luminescence, 48 h; series mostly up to 57.5 µM
Results filed as inconclusive are left out. The source made the active and inactive calls. Calls follow the shape of the dose curve; as a rule, active = well fitted cell-killing curve with a large enough effect; inconclusive = small, poorly fitted or top-dose-only effect, or effect the other way; inactive = flat fitted curve, though single readings scatter.
Pick one and only one: TRUE for active, FALSE for inactive

Req: I'd appreciate the recorded outcome for C/C=C/C1=CC2=C(CO1)C(=O)C(C)(OC(=O)c1c(C)cc(O)cc1OC)C(O)C2 (centres undefined) from this test.
Resp: FALSE

Req: Entry `Cc1ccc(-c2c(C(=O)CCl)n(CCCO)c3ncnc(N)c23)cc1` : call = ?
Resp: FALSE

Req: Tell me the recorded outcome of this test for `CCNC(=O)c1noc(-c2cc(Cl)c(O)cc2O)c1-c1ccc(OC)cc1` .
Resp: TRUE

Req: Would you mind telling me which call this test gave `Cc1cc(C(=O)Nc2cc(Oc3ccc4nc(NC(=O)C5CC5)cn4n3)ccc2C)n(C)n1` ?
Resp: FALSE

Req: What call does the record list for CCOC(=O)N1c2ccc(C(F)(F)F)cc2C(N(Cc2cc(C(F)(F)F)cc(C(F)(F)F)c2)C(=O)OC)CC1CC (centres undefined) ?
Resp: FALSE

Req: Which outcome was assigned to `COc1ccccc1N1CCN(CC[C@@](C)(C(=O)C2CCCCC2)c2ccccc2)CC1` in this test?
Resp: FALSE

Req: Recorded call for `CCNC1(C(N)=O)CN(c2nc(C)nc3c(-c4ccc(Cl)cc4)c(-c4ccccc4Cl)nn23)C1` ?
Resp: FALSE

Req: How did this test come out for `Cc1cccc(N2CCN(C(=O)c3cc(S(=O)(=O)N(C)C)ccc3N3CCCC3)CC2)c1C` ?
Resp: FALSE

Req: Could you kindly confirm the outcome this assay logged for NS(=O)(=O)c1ccc(N2N=C(c3ccccc3)CC2c2ccccc2)cc1 (centres undefined) ?
Resp: FALSE

* * *

Test: P-glycoprotein substrates identified in KB-8-5-11 adenocarcinoma cell line, qHTS therapeutic library screen (AID 1346987); also: nearly all actives have a fitted effect of over 65% in size
Conditions: KB-8-5-11 (P-gp overexpressing) viability, CellTiter-Glo, 72 h; series mostly up to 44.5 µM
Results filed as inconclusive are left out. Activity calls are given as the source filed them. Calls follow the shape of the dose curve; as a rule, active = well fitted inhibition curve with a large enough effect; inconclusive = small, poorly fitted or top-dose-only effect; inactive = flat fitted curve, though single readings scatter.
Choose the fitting class; nothing outside 1 for active, -1 for inactive is accepted.

Req: Record lookup: outcome of this test for `C=CC(C)(C)c1[nH]c2ccccc2c1C[C@@H]1NC(=O)[C@H](C)NC1=O` ?
Resp: -1

Req: Write down the call the test reported for this molecule. Item: C/C=C(\C)C(=O)OC1C=C(C)CC(OC(=O)c2ccc(O)cc2)C2C1(C)CCC2(O)C(C)C (stereo not given)
Resp: -1

Req: Hi, sorry to bother you, what did the test record for `C=C1CC[C@@H]2[C@](C)(CO)[C@H](O)CC[C@@]2(C)[C@@H]1CC(=O)C1=CCOC1=O` ?
Resp: -1

Req: Can you look up the reported call for `Cc1cc(C)c(-n2cc(C)c3c(Cl)nc(C)nc32)c(C)c1` for me?
Resp: -1

Req: Which outcome was assigned to `CNS(=O)(=O)c1ccccc1Nc1nc(Nc2ccc(N3CCN(C)CC3)cc2OC)ncc1Br` in this test?
Resp: 1
